Numbers sourced from patent US4946941A.

# Test system: Staphylococcus aureus FDA 209F JC-1
# Experiment notes: In vitro antibacterial activity, agar dilution method (MIC)
# Format: cell-based
# Stated conditions: 37° C., 18-20 hrs
Measure: MIC (µg/mL)
Provide the reading as a plain figure in µg/mL.

CN[C@H](CC(C)C)C(=O)N[C@H]1C(=O)N[C@@H](CC(N)=O)C(=O)N[C@H]2C(=O)N[C@H]3C(=O)N[C@H](C(=O)N[C@H](C(=O)O)c4cc(O)cc(O)c4-c4cc3ccc4O)[C@H](O[C@H]3C[C@](C)(N)[C@@H](O)[C@H](C)O3)c3ccc(c(Cl)c3)Oc3cc2cc(c3O[C@@H]2O[C@H](CO)[C@@H](O)[C@H](O)[C@H]2O)Oc2ccc(cc2)[C@H]1O [Compd. C, des-(4-epi-vancosaminyl)-PA-42867-A]; 0.78
CN[C@H](CC(C)C)C(=O)N[C@H]1C(=O)N[C@@H](CC(N)=O)C(=O)N[C@H]2C(=O)N[C@H]3C(=O)N[C@H](C(=O)N[C@H](C(=O)O)c4cc(O)cc(O)c4-c4cc3ccc4O)[C@H](O[C@H]3C[C@](C)(N)[C@@H](O)[C@H](C)O3)c3ccc(c(Cl)c3)Oc3cc2cc(c3O[C@@H]2O[C@H](CO)[C@@H](O)[C@H](O)[C@H]2O[C@H]2C[C@](C)(N)[C@@H](O)[C@H](C)O2)Oc2ccc(cc2)[C@H]1O; 0.39
CN[C@H](CC(C)C)C(=O)N[C@H]1C(=O)N[C@@H](CC(N)=O)C(=O)N[C@H]2C(=O)N[C@H]3C(=O)N[C@H](C(=O)N[C@H](C(=O)O)c4cc(O)cc(O)c4-c4cc3ccc4O)[C@H](O[C@H]3C[C@](C)(N)[C@@H](O)[C@H](C)O3)c3ccc(c(Cl)c3)Oc3cc2cc(c3O)Oc2ccc(cc2)[C@H]1O; 0.78

## Task Using the record for CN[C@H](CC(C)C)C(=O)N[C@H]1C(=O)N[C@@H](CC(N)=O)C(=O)N[C@H]2C(=O)N[C@H]3C(=O)N[C@H](C(=O)N[C@H](C(=O)O)c4cc(O)cc(O)c4-c4cc3ccc4O)[C@H](O[C@H]3C[C@](C)(N)[C@@H](O)[C@H](C)O3)c3ccc(c(Cl)c3)Oc3cc2cc(c3O[C@@H]2O[C@H](CO)[C@@H](O)[C@H](O)[C@H]2O[C@H]2C[C@H](O)[C@@H](O)[C@H](C)O2)Oc2ccc(cc2)[C@H]1O , report its MIC.
## Result 1.56
